The reported numbers originate from PubChem BioAssay AID651636.

Biological target: G-protein coupled receptor 183 (Homo sapiens) (UniProt P32249)
Sequence (P32249 whole entry, looked up, the tested form may be a part): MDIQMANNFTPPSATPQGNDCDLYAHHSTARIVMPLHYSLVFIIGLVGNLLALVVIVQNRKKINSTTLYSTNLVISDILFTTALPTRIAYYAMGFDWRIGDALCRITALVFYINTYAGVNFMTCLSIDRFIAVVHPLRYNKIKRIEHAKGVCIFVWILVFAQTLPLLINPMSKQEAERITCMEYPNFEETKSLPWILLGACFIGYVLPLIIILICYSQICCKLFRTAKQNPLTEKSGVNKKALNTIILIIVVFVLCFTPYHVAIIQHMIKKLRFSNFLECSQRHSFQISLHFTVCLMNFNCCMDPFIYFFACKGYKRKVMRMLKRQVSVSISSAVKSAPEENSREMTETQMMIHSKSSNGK
Assay: EBI2 receptor antagonists, beta-arrestin recruitment, primary screen, cell-based, luminescence, 7a,25-OHC stimulation, uHTS (AID 651636);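 note: enzyme fragment complementation signal reports receptor beta-arrestin coupling in cells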
Conditions: 7a,25-OHC stimulated, at 5 µM
Screen size: about 360,000 compounds; about 3,000 (0.83%) were called active. Cut-off read from the data, not from the text of the source: active = inhibition above about 38%; inactive = the rest. This excerpt belongs to a sample that is enriched for actives.
I would appreciate it if you answered using one of these outcomes: active, inactive

Challenge: Hi team, can someone confirm the assay call for COc1ccc(NC2CC(=O)N(C)C2=O)cc1 (stereo not given) ?
Response given: inactive

Challenge: Hi team, can someone confirm the assay call for `C=CCNc1nc(N)c(C(=C(C#N)C#N)c2ccccc2)s1` ?
Response given: inactive

Challenge: Hi team, can someone confirm the assay call for `Cc1cccc(C)c1NC(=O)CN1CCN(c2ccc(F)cc2)CC1` ?
Response given: inactive
